target: hNAAA (Homo sapiens (Human), UniProt Q02083); test: NAAA fluorescence-based inhibition assay with PAMCA substrate; format: biochemical; settings: purified activated hNAAA, PAMCA 5 μM, pH 4.5, 37° C.
Sequence (Q02083 29-125): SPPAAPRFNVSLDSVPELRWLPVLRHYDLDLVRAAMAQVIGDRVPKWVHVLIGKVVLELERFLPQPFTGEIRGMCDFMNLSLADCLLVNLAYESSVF
Sequence (Q02083 126-359): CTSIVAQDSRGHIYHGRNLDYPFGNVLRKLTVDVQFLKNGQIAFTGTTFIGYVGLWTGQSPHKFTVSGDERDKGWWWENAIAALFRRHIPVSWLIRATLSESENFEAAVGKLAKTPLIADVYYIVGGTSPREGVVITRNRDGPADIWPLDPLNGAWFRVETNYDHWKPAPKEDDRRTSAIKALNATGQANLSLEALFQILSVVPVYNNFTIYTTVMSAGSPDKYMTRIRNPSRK
# maps each entry to its IC50

- COMPOUND: "COc1ccc(-c2ccc(C(C)O[C@H]3C[C@@H](N=C=S)C3)nc2)cc1F (stereo partly shown)"
  IC50: "110 to 1000 nM"
- COMPOUND: "COc1ccc(-c2ccc(S(=O)(=O)N[C@H]3C[C@@H](N=C=S)C3)cc2)cc1F"
  IC50: "10 to 100 nM"
- COMPOUND: "COc1ccc(Oc2ccc(C(=O)N[C@H]3C[C@H](N=C=S)C3)cc2)cc1"
  IC50: "> 1000 nM"
- COMPOUND: "CC[C@H]1CC[C@H](c2ccc(C(=O)N[C@H]3C[C@@H](N=C=S)C3)cc2)CC1"
  IC50: "> 1000 nM"
- COMPOUND: "COc1ccc(-c2ccc(C(=O)N[C@H]3C[C@@H](N=C=S)C3)nc2)nc1"
  IC50: "10 to 100 nM"
- COMPOUND: "COc1ccc(C2CC2C(=O)N[C@H]2C[C@@H](N=C=S)C2)cc1 (stereo partly shown)"
  IC50: "10 to 100 nM"
- COMPOUND: "COc1ccc(-c2ncc(C(=O)N[C@H]3C[C@@H](N=C=S)C3)o2)cc1"
  IC50: "110 to 1000 nM"

---

biological target: UniProt:Q02083; test: NAAA fluorescence-based inhibition assay with PAMCA substrate; conditions: purified activated hNAAA, PAMCA 5 μM, pH 4.5, 37° C.
pIC50: −log10 of the molar value.
Reported pIC50 by item:

- COMPOUND: "COc1ccc(-c2ccc(C(=O)N[C@]34C[C@](N=C=S)(C3)C4)c(F)c2)cc1 [Example 9]"
  pIC50: "< 6.00"
- COMPOUND: "COc1ccc(-c2cc(C(=O)N[C@H]3C[C@@H](N=C=S)C3)on2)cc1 [Example 16]"
  pIC50: "7.00 to 8.00"
- COMPOUND: "COc1ccc(-c2ccc(C(=O)O[C@H]3C[C@@H](N=C=S)C3)c(F)c2)cc1 [Example 8]"
  pIC50: "7.00 to 8.00"
- COMPOUND: "COc1ccc(-c2ccc(S(=O)(=O)O[C@H]3C[C@@H](N=C=S)C3)cc2)cc1F [Example 31]"
  pIC50: "7.00 to 8.00"
- COMPOUND: "COc1ccc(CCCC(=O)N[C@H]2C[C@@H](N=C=S)C2)cc1 [Example 15]"
  pIC50: "7.00 to 8.00"
- COMPOUND: "O=C(CCCCCc1ccccc1)N[C@H]1C[C@@H](N=C=S)C1 [Example 32]"
  pIC50: "7.00 to 8.00"
- COMPOUND: "COc1ccc(-c2ccc(C(=O)N[C@H]3C[C@@H](N=C=S)C3)nc2)cc1F [Example 19]"
  pIC50: "7.00 to 8.00"
- COMPOUND: "COc1ccc(N2CCC(C(=O)N[C@H]3C[C@@H](N=C=S)C3)CC2)cc1 [Example 17]"
  pIC50: "6.00 to 6.96"
- COMPOUND: "COc1ccc(-c2ccc(S(=O)(=O)N[C@H]3C[C@@H](N=C=S)C3)cc2)cc1 [Example 25]"
  pIC50: "7.00 to 8.00"
- COMPOUND: "COc1cccc(-c2ccc(C(=O)N[C@H]3C[C@@H](N=C=S)C3)cc2)c1 [Example 2]"
  pIC50: "6.00 to 6.96"
- COMPOUND: "COc1ccc(CCC(=O)N[C@H]2C[C@@H](N=C=S)C2)cc1 [Example 12]"
  pIC50: "6.00 to 6.96"
- COMPOUND: "COc1ccc(C#CC(=O)N[C@H]2C[C@@H](N=C=S)C2)cc1 [Example 13]"
  pIC50: "6.00 to 6.96"
- COMPOUND: "COc1ccc(-c2ccc(CO[C@H]3C[C@@H](N=C=S)C3)nc2)cc1F [Example 43]"
  pIC50: "7.00 to 8.00"
- COMPOUND: "COc1ccc(N2CC(C(=O)N[C@H]3C[C@@H](N=C=S)C3)C2)cc1 [Example 36]"
  pIC50: "6.00 to 6.96"
- COMPOUND: "COc1cccc(-c2ccc(C(=O)N[C@H]3C[C@@H](N=C=S)C3)nc2)c1 [Example 20]"
  pIC50: "6.00 to 6.96"
- COMPOUND: "COc1ccc(C23CC(C(=O)N[C@H]4C[C@@H](N=C=S)C4)(C2)C3)cc1 [Example 37]"
  pIC50: "6.00 to 6.96"
- COMPOUND: "COc1ccc(-c2cnc(C(=O)N[C@H]3C[C@@H](N=C=S)C3)cn2)cc1 [Example 22]"
  pIC50: "6.00 to 6.96"
- COMPOUND: "COc1ccc(-c2ccc(C(=O)O[C@H]3C[C@@H](N=C=S)C3)c(F)c2)cc1F [Example 28]"
  pIC50: "7.00 to 8.00"
